Experiment: solubility in Lac-Buffer
Assay type: physicochemical
Settings: 37 °C, pH 7.4, aqueous buffer, thermodynamic from solid, pH 7.4, by UV
Description: Solubility: 0.7 mg of OYA002-16 was suspended in 100.8 μl Lac-Buffer pH 4.5 or pH 7.4, vortexed for 10 min and warmed-up at 37° C. for 10 min, sonicated for 5 min and vortexed again for 10 min and centrifuged for 10 min. Supernatant was directly injected for concentration measurement. pH 7.4 Solubility: 65-72 μM by UV, 58-63 μM by CLND. pH 4.5 Solubility: 74-92 μM by UV, 74 μM by CLND. HPLC conditions used for the experiments were as follows: Column: Luna C-18, 150×4.6 from Phenomenex. […]

STRUCTURE AS SMILES	solubility at 35 min
CC[C@@]1(O)C(=O)NCc2c1cc1n(c2=O)Cc2cc3ccccc3nc2-1	65 to 72 µM

====

Assay: solubility in Lac-Buffer
Type: physicochemical
Conditions: 37 °C, pH 4.5, aqueous buffer, thermodynamic from solid, pH 4.5, by CLND

COMPOUND	READING UNIT	solubility at 35 min
CC[C@@]1(O)C(=O)NCc2c1cc1n(c2=O)Cc2cc3ccccc3nc2-1 [OYA002-16, Lactam-CPT]	µM	74
